EXPERIMENT: Rat cerebrospinal fluid (CSF) pharmacokinetic properties
Type: in vivo
STUDY CONDITIONS: CSF, male Sprague-Dawley rats, PO 10 mg/kg in PEG400, 1 h post-dosing, compounds in Table IA, read-out: CSF Conc. (nM @ 1 h)
ENDPOINT LABEL: concentration at 1 h (nM)

Known concentration at 1 h results, listed for orientation:
- COMPOUND: "Fc1cccc(Cn2nc(-c3nc(Cl)n[nH]3)c3cccnc32)c1F [Compound I-86]"
  ENDPOINT LABEL: "concentration at 1 h"
  NUMERIC READOUT: 31.5
- COMPOUND: "Cc1ncc(Cn2nc(-c3nc(C(F)(F)F)n[nH]3)c3ccccc32)cn1 [Compound I-62]"
  ENDPOINT LABEL: "concentration at 1 h"
  NUMERIC READOUT: 83
- COMPOUND: "N#Cc1n[nH]c(-c2nn(Cc3ccccc3F)c3ncccc23)n1 [Compound I-41]"
  ENDPOINT LABEL: "concentration at 1 h"
  NUMERIC READOUT: 26.6
- COMPOUND: "FC(F)(F)c1n[nH]c(-c2nn(Cc3cncnc3)c3ncccc23)n1 [Compound I-4]"
  ENDPOINT LABEL: "concentration at 1 h"
  NUMERIC READOUT: 79.5
- COMPOUND: "Fc1cncc(Cn2nc(-c3nc(C(F)(F)F)n[nH]3)c3cccnc32)c1 [Compound I-1]"
  ENDPOINT LABEL: "concentration at 1 h"
  NUMERIC READOUT: 164

I = OCc1n[nH]c(-c2nn(Cc3ccccc3F)c3ncccc23)n1 [Compound I-64]
II = Fc1ccccc1Cc1nn(-c2nc(C(F)F)n[nH]2)c2cccnc12 [Compound I-101]
Query: // select label with min value of measured concentration at 1 h from [ I , II ] Your answer should be the label of the entry you select.
Result: I
